Let's look at some binders and their measured Kd.
# tested-on: T1, Dimeric monkey CD48-mFc (monkey)
# T1 construct: Soluble monkey CD48 with a C-terminal Fc fusion [mFc]; the whole entry is the construct
# T1 chain: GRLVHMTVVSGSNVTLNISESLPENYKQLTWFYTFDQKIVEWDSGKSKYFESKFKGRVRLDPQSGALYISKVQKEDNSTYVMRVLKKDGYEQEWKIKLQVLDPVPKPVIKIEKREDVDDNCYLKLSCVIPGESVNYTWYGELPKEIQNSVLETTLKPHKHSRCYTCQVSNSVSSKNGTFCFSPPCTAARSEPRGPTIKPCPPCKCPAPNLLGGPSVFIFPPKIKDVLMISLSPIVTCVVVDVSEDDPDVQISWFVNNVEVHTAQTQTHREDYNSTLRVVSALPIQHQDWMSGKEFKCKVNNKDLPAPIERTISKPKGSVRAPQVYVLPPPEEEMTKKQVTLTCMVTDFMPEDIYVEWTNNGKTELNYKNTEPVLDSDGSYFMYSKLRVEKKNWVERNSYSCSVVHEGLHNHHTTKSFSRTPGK
# test-method-notes: SPR (Biacore), antibody captured by anti-Fc, CD48 in solution, 37 C
observation-type: Kd (nM)

binder	unit-symbol	quantitative-result
H4H1774P (antibody, human IgG4, V domains shown, Human IgG4 Fc (H4H)) VH: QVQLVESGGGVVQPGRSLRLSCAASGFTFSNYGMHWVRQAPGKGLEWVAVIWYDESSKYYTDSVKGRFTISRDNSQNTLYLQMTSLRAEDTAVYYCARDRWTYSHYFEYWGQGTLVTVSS VL: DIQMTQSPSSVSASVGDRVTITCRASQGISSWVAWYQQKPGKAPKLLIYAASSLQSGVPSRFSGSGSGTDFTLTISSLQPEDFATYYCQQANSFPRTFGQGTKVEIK	nM	0.107
H4H1781P (antibody, human IgG4, V domains shown, Human IgG4 Fc (H4H)) VH: QVQLVESGGGVVQPGRSLRLSCAASGFTFSNYGMHWVRQAPGKGLEWVAVIWYDDSNKNYADSVKGRFTISRDNSKNTLYLQMNSLRVEDTAVYYCARDRWTYSHFFEYWGQGTLVTVSS VL: DIQMTQSPSSVSASVGDRVTITCRASQGISSWLAWYQQKPGKAPNLLIYAASSLQSGVPSRFGGSGSGTDFSLTISGLQPEDFATYYCQQANSFPRTFGQGTKVEIK	nM	0.0755
H4H1771P (antibody, human IgG4, V domains shown, Human IgG4 Fc (H4H)) VH: QVQLVQSGTEVKKPGASVKVSCKVSGYTLIDLSIHWVRQAPGEGLEWMGGFDPEESETIYAQKFQGRVTMTEDTSTDTAYMELSSLRSEDTAVYYCVTEPIFGILIHESWGQGTLVTVSS VL: DIVMTQTPLSSPVTLGQPASISCRSSHSPVHSNGHTYLSWLQQRPGQPPRILIYKISRRFSGVPDRFSGSGAGTDFTLKISRVETEDVGIYYCMQASQFPWTFGQGTKVEIK	nM	0.0621
H4H1763N (antibody, V domains shown, Human IgG4 Fc (H4H)) VH: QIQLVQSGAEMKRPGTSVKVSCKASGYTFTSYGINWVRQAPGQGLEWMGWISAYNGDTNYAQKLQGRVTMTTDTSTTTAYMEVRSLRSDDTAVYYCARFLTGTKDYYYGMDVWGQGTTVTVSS VL: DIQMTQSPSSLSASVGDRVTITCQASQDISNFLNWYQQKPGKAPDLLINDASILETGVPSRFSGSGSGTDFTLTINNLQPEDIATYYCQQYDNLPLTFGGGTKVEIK	nM	0.047

src = patent US20130230533A1
